Test system: A549
Assay: SRB cytotoxicity (anti-tumor activity) in vitro, A549
Type: cell-based
Details: Homo sapiens; A549 non small cell lung carcinoma; SRB, 48 hours; read-out: ED50 (the source's name)
observation type: IC50

>  <compound>
CC(=O)Oc1cc(C)ccc1C(O)(CO)COC(=O)c1ccc([N+](=O)[O-])cc1 (centres unmarked)

>  <result>
> 100 µM

$$$$

Query: Could you tell me which IC50 is on file for `C=C(CO)c1ccc(C)cc1OCc1ccc([N+](=O)[O-])cc1` ?
Reply: 4.6 µM

---

System: A549
Assay: SRB cytotoxicity (anti-tumor activity) in vitro, A549
Format: cell-based
Settings: Homo sapiens; A549 non small cell lung carcinoma; SRB, 48 hours; read-out: ED50 (the source's name)
IC50 listing for selected compounds.
Give a bare numeral; the unit µM is implied.

>  <compound>
CC(=O)OCC1(c2ccc(OC(C)=O)cc2OC(C)=O)CO1 (stereo not drawn)

>  <IC50, µM>
18.6

$$$$
>  <compound>
CC(=O)Oc1ccccc1C1(COC(=O)c2ccc(C)cc2)CO1 (stereo not drawn)

>  <IC50, µM>
41.4

$$$$

We next turn to a different compound, shown below.
Query: Could you tell me which IC50 is on file for CC(=O)Oc1ccc(C2(COC(=O)Cc3ccc([N+](=O)[O-])cc3)CO2)c(OC(C)=O)c1 (stereo not drawn) ?
Reply: 23.5
